These measurements were taken from the supplement of paper PMC10567573.

Give protein stability index for every item shown.
B1: MLL5 (parent)
chain: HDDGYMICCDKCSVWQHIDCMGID

variants of: B1; test: protein stability index of a GFP-peptide fusion (GPS, HEK-293T) (PSI 1-6); higher = more stable; details: c terminus: a fixed tail appended;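 also: lentivirally expressed fusions sorted by FACS into six bins by GFP to DsRed ratio, PSI derived from sequencing read proportions per bin multiplied by bin number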
One number for each entry.

Here are 2 variants together with their reported answers.
| constructSequence | protein stability index |
| --- | --- |
| HDDGYMICCDKCSVWQHIDCMFID | 2.04 |
| HDDGYMICCDKCSVWQHIACMGID | 2.04 |

Entry HDDGYWICCDKCSVWQHIDCMGID : reported protein stability index = ?
2
